Parameter: TGI. Scope: all listed entries.
- System: SN12C renal
- ASSAY_INFO: NCI tumour cell line growth inhibition, 48 h

COMPOUND: Cc1ccc(SSCCCCCS(=O)O)cc1
COMPARISON_OPERATOR: =
TGI, µM: 49
--
COMPOUND: COc1ccc(C2=NN(C(=O)c3cccnc3)C(O)(c3cc(F)c(Cl)cc3Cl)C2)cc1OC (configuration not stated)
COMPARISON_OPERATOR: =
TGI, µM: 34.7
--
COMPOUND: C=C(C)[C@@H]1CC[C@]2(C(N)=O)CC[C@]3(C)[C@H](CC[C@@H]4[C@@]5(C)C/C(=C/c6cccnc6)[C@H](O)C(C)(C)[C@@H]5CC[C@]43C)[C@@H]12
COMPARISON_OPERATOR: >
TGI, µM: 100
--
COMPOUND: C[CH2][Sn]([CH2]C)([O]C(=O)c1ccc(F)cc1)[O][Sn]([CH2]C)([CH2]C)[O]C(=O)c1ccc(F)cc1
COMPARISON_OPERATOR: >
TGI, µM: 100
--
COMPOUND: O=[N+]([O-])c1ccc(C(=Nc2ccccc2)SSC(=Nc2ccccc2)c2ccc([N+](=O)[O-])o2)o1
COMPARISON_OPERATOR: =
TGI, µM: 4.48
--
COMPOUND: COC(=O)C1=C(C)N(NC(N)=O)C(C)(O)C12CCOC2=O (configuration not stated)
COMPARISON_OPERATOR: >
TGI, µM: 100
--
COMPOUND: COCN1C(=O)[C@@H]2CCCN2C(=O)c2ccc([N+](=O)[O-])cc21
COMPARISON_OPERATOR: >
TGI, µM: 100
--
COMPOUND: COC(=O)[C@H](COC(=O)/C=C/c1ccc(OC(C)=O)c(OC(C)=O)c1)NC(=O)/C=C/c1ccc(OC(C)=O)c(OC(C)=O)c1
COMPARISON_OPERATOR: =
TGI, µM: 36.4
--
COMPOUND: CCOC(=O)c1c(CN2CCCC2)n(-c2ccccc2)c2cc(Br)c(OC)cc12
COMPARISON_OPERATOR: >
TGI, µM: 100
--
COMPOUND: Cn1nc2ccccc2cc1=O
COMPARISON_OPERATOR: >
TGI, µM: 100
--
COMPOUND: CCOP(=O)(OCC)C(F)(F)Cc1cnc(C)c2c1COC(C)(C)O2
COMPARISON_OPERATOR: >
TGI, µM: 10
--
COMPOUND: N#CC(c1ccccc1)N(CCOCCOCCN(C(=O)c1cccc2ccccc12)C(C#N)c1ccccc1)C(=O)c1cccc2ccccc12 (configuration not stated)
COMPARISON_OPERATOR: >
TGI, µM: 100
--
COMPOUND: COc1cnc2c(c1)C(=O)c1c-2n(CCCNC(C)C)c(=O)c2cc([N+](=O)[O-])ccc12
COMPARISON_OPERATOR: =
TGI, µM: 0.438
--
COMPOUND: COc1ccc(C2S/C(=C\c3ccccc3)C(=O)N2NC(=O)Cc2ccccc2)cc1 (configuration not stated)
COMPARISON_OPERATOR: >
TGI, µM: 100
--
COMPOUND: Cn1c(=O)c2c(nc(NCCNc3nc4c(c(=O)n(C)c(=O)n4C)n3C)n2C)n(C)c1=O
COMPARISON_OPERATOR: >
TGI, µM: 100
--
COMPOUND: CCOC(=O)N1C=CC(=C2C(=C3C=CN(C(=O)OCC)C=C3)C(=C3C=CN(C(=O)OCC)C=C3)C2=C2C=CN(C(=O)OCC)C=C2)C=C1
COMPARISON_OPERATOR: =
TGI, µM: 92.4
--
COMPOUND: N#C[S-].[Ce+3].c1cnc2c(c1)ccc1cccnc12.c1cnc2c(c1)ccc1cccnc12.c1cnc2c(c1)ccc1cccnc12
COMPARISON_OPERATOR: =
TGI, µM: 13.1
